assay: Dog PK study of C1 (S) enantiomer, single oral dose, plasma and whole blood by chiral LC-MS/MS; type: in vivo, beagle dogs; conditions: dog, in vivo; 1080 hr; Beagle; oral 10 mg/kg
result type: concentration at 1080 hr (ng/mL)
Numbers only; they are read as ng/mL.

Sure, the documented concentration at 1080 hr for O=C(CC(F)(F)F)N1CC2(C1)OCc1cc(C3=NS[C@@](c4cc(Cl)c(F)c(Cl)c4)(C(F)(F)F)C3)ccc12 [C1 (S) enantiomer] is 15.7

---

assay: Plasma PK from oral tick and flea efficacy studies of the C1 racemate; format: in vivo, Mongrel dogs; conditions: mongrel, dog, plasma, po, 10 mg/kg; Tick Efficacy study, oral 10 mg/kg
result type: CL/F (mL/min/kg)
Your answer should be a plain number; it is taken to be in mL/min/kg.

Entry O=C(CC(F)(F)F)N1CC2(C1)OCc1cc(C3=NSC(c4cc(Cl)c(F)c(Cl)c4)(C(F)(F)F)C3)ccc12 (racemic) [C1 racemate] , CL/F reported as 0.502
